biological target: human μ-opiate receptor (Homo sapiens); assay: Affinity for the human μ-opiate receptor ([3H]-naloxone displacement, SPA, CHO-K1 membrane preparation); type: binding; details: read-out: μ-Opioid receptor, Ki
Sequence (P35372 whole entry): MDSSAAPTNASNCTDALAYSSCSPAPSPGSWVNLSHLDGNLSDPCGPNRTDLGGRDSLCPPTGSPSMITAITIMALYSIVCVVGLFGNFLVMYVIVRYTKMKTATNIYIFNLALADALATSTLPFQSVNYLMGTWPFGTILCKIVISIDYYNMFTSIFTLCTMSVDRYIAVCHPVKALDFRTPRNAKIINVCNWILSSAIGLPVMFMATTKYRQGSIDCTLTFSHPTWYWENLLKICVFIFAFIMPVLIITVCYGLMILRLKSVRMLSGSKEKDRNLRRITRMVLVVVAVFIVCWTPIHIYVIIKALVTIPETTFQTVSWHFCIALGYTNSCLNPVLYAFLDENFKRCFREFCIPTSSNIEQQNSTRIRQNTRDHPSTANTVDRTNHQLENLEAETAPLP
Counter-ions that a name gives are not always drawn.
QUANTITY_NAME: pKi
pKi (log units): -log10 of the concentration in mol/L.

The value of pKi measured for the molecule COc1ccccc1C(=O)NCCC1CCC(C(c2ccccc2)N(C)C)CC1 (stereo not drawn) turned out to be 8.34

Cc1cc(C(=O)NC2CCC(C(c3ccccc3)N(C)C)CC2)no1 (stereo not drawn) has a reported pKi of 6.96

Entry under test: Cc1nc(-c2ccc3c(c2)CCO3)sc1C(=O)NC1CCC(C(c2cccs2)N(C)C)CC1 (stereo not drawn) . Its pKi was 6.82

The molecule listed as COc1ccccc1C(=O)NCC1CCC(C(c2cccs2)N(C)C)CC1 (stereo not drawn) shows pKi equal to 7.92

# pKi of Cc1cccc(C(=O)NCC2CCC(C(c3ccccc3)N(C)C)CC2)c1 (stereo not drawn) = 7.22

pKi in this record for CCC(C)C(=O)NCC1CCC(C(c2ccccc2)N(C)C)CC1 (stereo not drawn) : 7.15

Value of pKi reported for the molecule CN(C)C(c1cccc(F)c1)C1CCC(NC(=O)c2c(F)cccc2F)CC1 (stereo not drawn) is 7.07

Data point: CN(C)C(c1cccc(F)c1)C1CCC(NC(=O)Cc2ccc(Cl)cc2)CC1 (stereo not drawn) ; pKi = 7.00

For record CN(C)C(c1ccccc1)C1CCC(CNC(=O)C2(c3ccc(Cl)cc3)CCCC2)CC1 (stereo not drawn) [compound 318] the listed pKi is 7.64

Value of measured pKi for the entry CN(C)C(c1ccccc1)C1CCC(CCNC(=O)c2ccc(C#N)cc2)CC1 (stereo not drawn) : 7.04

For this molecule ( CCCc1ccc(C(=O)NC2CCC(C(c3cccs3)N(C)C)CC2)cc1 (stereo not drawn) ), measured pKi is 7.43

Form field pKi, entry CN(C)C(c1ccccc1)C1CCC(NC(=O)c2csc(-c3ccc4c(c3)CCO4)n2)CC1 (stereo not drawn) : 7.11

// pKi lookup, molecule = COc1cc(C(=O)NC2CCC(C(c3cccs3)N(C)C)CC2)cc(OC)c1OC (stereo not drawn) , result: 7.72

Query CN(C)C(c1ccccc1)C1CCC(CCNC(=O)c2ccccc2F)CC1 (stereo not drawn) yields pKi of 8.24

The molecule identified as COC(=O)C(Cc1c[nH]c2ccccc12)NC1CCC(C(c2ccccc2)N(C)C)CC1 (single isomer, unassigned) [compound 175] registered its pKi at 7.96

Notebook: CN(C)C(c1ccccc1)C1CCC(NCCc2ccccc2)CC1 (stereo not drawn) [compound 84, hydrochloride] , pKi read as 7.92

pKi recorded for this molecule, Cc1ccc(Oc2ncccc2C(=O)NC2CCC(C(c3cccs3)N(C)C)CC2)cc1 (stereo not drawn) , is 6.82

Please fill in: pKi reported for CN(C)C(c1cccs1)C1CCC(CNC(=O)c2csc3ccccc23)CC1 (stereo not drawn) = 8.80

For reference, reported pKi for CN(C)C(c1cccs1)C1CCC(CNC(=O)c2c(F)cccc2F)CC1 (stereo not drawn) stands at 7.46

Entry under test: CN(C)C(c1ccccc1)C1CCC(CCNC(=O)COCc2ccccc2)CC1 (stereo not drawn) . Its pKi was 7.09

Recorded pKi (molecule CSc1ncccc1C(=O)NC1CCC(C(c2cccs2)N(C)C)CC1 (stereo not drawn) ): 6.89

The measured values listed here are drawn from patent US8058475B2.
